target_entity: human TLR8 (Homo sapiens, UniProt Q9NR97)
Sequence (Q9NR97 27-1041): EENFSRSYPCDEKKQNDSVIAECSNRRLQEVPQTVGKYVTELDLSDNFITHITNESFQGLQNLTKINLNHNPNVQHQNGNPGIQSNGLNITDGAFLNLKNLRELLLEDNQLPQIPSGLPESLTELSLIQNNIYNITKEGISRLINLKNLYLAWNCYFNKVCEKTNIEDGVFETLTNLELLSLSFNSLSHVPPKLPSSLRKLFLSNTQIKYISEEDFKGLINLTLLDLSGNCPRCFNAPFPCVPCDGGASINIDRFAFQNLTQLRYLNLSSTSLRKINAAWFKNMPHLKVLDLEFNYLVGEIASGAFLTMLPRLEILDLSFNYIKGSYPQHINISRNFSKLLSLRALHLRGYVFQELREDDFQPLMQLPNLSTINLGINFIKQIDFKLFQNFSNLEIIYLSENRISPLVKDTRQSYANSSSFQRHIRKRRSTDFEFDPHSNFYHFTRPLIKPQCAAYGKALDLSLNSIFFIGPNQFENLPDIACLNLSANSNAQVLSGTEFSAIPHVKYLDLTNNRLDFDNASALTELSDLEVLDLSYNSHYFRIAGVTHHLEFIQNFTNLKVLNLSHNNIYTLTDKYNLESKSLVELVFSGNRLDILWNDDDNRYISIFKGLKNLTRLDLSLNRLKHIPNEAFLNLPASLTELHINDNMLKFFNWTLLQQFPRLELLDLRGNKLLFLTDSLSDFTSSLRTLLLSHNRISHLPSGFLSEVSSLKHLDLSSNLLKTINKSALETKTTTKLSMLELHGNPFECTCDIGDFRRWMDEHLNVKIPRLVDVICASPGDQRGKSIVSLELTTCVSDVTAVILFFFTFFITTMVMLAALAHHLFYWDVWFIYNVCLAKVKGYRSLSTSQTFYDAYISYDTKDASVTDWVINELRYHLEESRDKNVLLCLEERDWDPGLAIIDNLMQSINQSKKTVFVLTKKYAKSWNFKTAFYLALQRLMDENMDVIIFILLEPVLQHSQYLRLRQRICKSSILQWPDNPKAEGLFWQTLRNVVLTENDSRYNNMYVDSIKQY
procedure_text: HEK293-Blue-hTLR8 cells assay (NF-κB SEAP reporter)
reported_conditions: 20 hours incubation, agonism
Label YES when EC50 is strictly below 0.03 µM; at or above that, label NO.

{"molecule": "CCCCc1nc2c(N)nnc(N(C)Cc3ccc(CN(C)C)cc3)c2n1C [SAN-43, reference compound]", "assigned_category": "NO"}
{"molecule": "CCOCc1nc2c(N)nc(C)c(Sc3cc(C)c(CN(C)C)cc3O)c2[nH]1", "assigned_category": "NO"}
{"molecule": "CCOCc1nc2c(N)nc(C)c(Sc3ccc(CN4CCCC4)cc3N)c2[nH]1", "assigned_category": "YES"}
{"molecule": "CCOCc1nc2c(N)nc(C)c(Sc3ccc(CN(C)C)c(O)c3)c2[nH]1", "assigned_category": "YES"}
{"molecule": "CCOCc1nc2c(N)nc(C)c(Sc3ccc(CN(C)C)cc3N)c2[nH]1", "assigned_category": "NO"}
{"molecule": "CCOCc1nc2c(N)nc(C)c(Sc3ccc(CN4CCN(C)CC4)cc3N)c2[nH]1", "assigned_category": "NO"}
{"molecule": "CCCCc1nc2c(N)nc(C)c(SCCc3ccc(CN(C)C)cc3)c2[nH]1", "assigned_category": "YES"}
{"molecule": "CCOCc1nc2c(N)nc(C)c(Sc3ccc(CN(C)C)c(OC)c3)c2[nH]1", "assigned_category": "YES"}
{"molecule": "CCOCc1nc2c(N)nc(C)c(Sc3ccc(CN(C)C)cc3)c2n1C", "assigned_category": "YES"}
{"molecule": "CCOCc1nc2c(N)nc(C)c(Sc3cc4c(cc3O)CN(C)CC4)c2[nH]1", "assigned_category": "NO"}
{"molecule": "CCOCc1nc2c(N)nc(C)c(Sc3ccc(CN4CCCC4)cc3O)c2[nH]1", "assigned_category": "NO"}
{"molecule": "CCOCc1nc2c(N)nc(C)c(Sc3ccc(NCCN(C)C)nc3)c2[nH]1", "assigned_category": "YES"}
{"molecule": "CCOCc1nc2c(N)nc(C)c(Sc3ccc(CN(C)C)c(O)c3)c2n1C", "assigned_category": "YES"}
{"molecule": "CCCCc1nc2c(N)nc(C)c(Sc3ccc(CN(C)C)cc3)c2n1CC(C)(C)O", "assigned_category": "YES"}
{"molecule": "CCOCc1nc2c(N)nc(C)c(Sc3ccc(C(C)N(C)C)cc3O)c2[nH]1 (stereo not drawn)", "assigned_category": "NO"}
{"molecule": "CCOCc1nc2c(N)nc(C)c(SCCc3ccc(CN(C)C)cc3)c2[nH]1", "assigned_category": "YES"}
{"molecule": "CCOCc1nc2c(N)nc(C)c(Sc3ccc(CN(C)C)c(C)c3O)c2[nH]1", "assigned_category": "YES"}
{"molecule": "CCOCc1nc2c(N)nc(C)c(Sc3ccc(CN(C)C)c4cc[nH]c34)c2[nH]1", "assigned_category": "YES"}
{"molecule": "CCOCc1nc2c(N)nc(C)c([Se]c3ccc(CN(C)C)cc3)c2n1CC(C)(C)O", "assigned_category": "YES"}
{"molecule": "CCOCc1nc2c(N)nc(C)c(SCCc3ccc(CN(C)C)c(O)c3)c2[nH]1", "assigned_category": "YES"}
{"molecule": "CCOCc1nc2c(N)nc(C)c(Sc3ccc(CN(C)C)cc3O)c2[nH]1", "assigned_category": "YES"}
{"molecule": "CCOCc1nc2c(N)nc(C)c(Sc3ccc(CN4CCN(C)CC4)c(N)c3)c2[nH]1", "assigned_category": "NO"}
{"molecule": "CCOCc1nc2c(N)nc(C)c(Sc3ccc(CN(C)C)cc3)c2[nH]1", "assigned_category": "YES"}
{"molecule": "CCOCc1nc2c(N)nc(C)c(Sc3c(N)cc(CN4CCN(C)CC4)cc3OC)c2[nH]1", "assigned_category": "NO"}
{"molecule": "CCOCc1nc2c(N)nc(C)c(Sc3cc(O)c(CN(C)C)cc3C)c2[nH]1", "assigned_category": "NO"}
{"molecule": "CCCCc1nc2c(N)nc(C)c(Sc3ccc(CN(C)C)cc3)c2[nH]1", "assigned_category": "YES"}
{"molecule": "CCOCc1nc2c(N)nc(C)c(Sc3ccc(CN(C)C)c4cn[nH]c34)c2[nH]1", "assigned_category": "NO"}
{"molecule": "CCOCc1nc2c(N)nc(C)c(Sc3ccc(CN(C)CC)cc3)c2[nH]1", "assigned_category": "YES"}
{"molecule": "CCOCc1nc2c(N)nc(C)c(Sc3c(OC)cc(CN(C)C)cc3OC)c2[nH]1", "assigned_category": "YES"}
{"molecule": "CCCCc1nc2c(N)nc(C)c(Sc3ccc(CN(C)C)cc3O)c2[nH]1", "assigned_category": "NO"}
{"molecule": "CCOCc1nc2c(N)nc(C)c(Sc3ccc(CN(CC)CC)cc3O)c2[nH]1", "assigned_category": "NO"}
{"molecule": "CCOCc1nc2c(N)nc(C)c(Sc3ccc(CCN(C)C)cc3)c2[nH]1", "assigned_category": "YES"}

###

target_entity: human TLR7 (Homo sapiens)
Construct: host or cells: HEK293-Blue-hTLR7 (HEK293)
procedure_text: HEK293-Blue-hTLR7 cells assay (NF-κB SEAP reporter)
Format: cell-based
reported_conditions: 20 hrs incubation, agonism
pEC50: −log10 of the molar value.
Answer False if pEC50 is under 8, and True if it is 8 or more.

{"test_smiles": "CCOCc1nc2c(N)nc(C)c(Sc3cc4c(cc3O)CN(C)CC4)c2[nH]1", "assigned_category": "False"}
{"test_smiles": "CCOCc1nc2c(N)nc(C)c(Sc3ccc(CN(C)C)cc3)c2n1C", "assigned_category": "False"}
{"test_smiles": "CCOCc1nc2c(N)nc(C)c(Sc3c(OC)cc(CN(C)C)cc3OC)c2[nH]1", "assigned_category": "True"}
{"test_smiles": "CCOCc1nc2c(N)nc(C)c(Sc3cc(C)c(CN(C)C)cc3O)c2[nH]1", "assigned_category": "False"}

###

target_entity: human TLR7 (Homo sapiens, UniProt Q9NYK1)
Sequence (Q9NYK1 27-1049): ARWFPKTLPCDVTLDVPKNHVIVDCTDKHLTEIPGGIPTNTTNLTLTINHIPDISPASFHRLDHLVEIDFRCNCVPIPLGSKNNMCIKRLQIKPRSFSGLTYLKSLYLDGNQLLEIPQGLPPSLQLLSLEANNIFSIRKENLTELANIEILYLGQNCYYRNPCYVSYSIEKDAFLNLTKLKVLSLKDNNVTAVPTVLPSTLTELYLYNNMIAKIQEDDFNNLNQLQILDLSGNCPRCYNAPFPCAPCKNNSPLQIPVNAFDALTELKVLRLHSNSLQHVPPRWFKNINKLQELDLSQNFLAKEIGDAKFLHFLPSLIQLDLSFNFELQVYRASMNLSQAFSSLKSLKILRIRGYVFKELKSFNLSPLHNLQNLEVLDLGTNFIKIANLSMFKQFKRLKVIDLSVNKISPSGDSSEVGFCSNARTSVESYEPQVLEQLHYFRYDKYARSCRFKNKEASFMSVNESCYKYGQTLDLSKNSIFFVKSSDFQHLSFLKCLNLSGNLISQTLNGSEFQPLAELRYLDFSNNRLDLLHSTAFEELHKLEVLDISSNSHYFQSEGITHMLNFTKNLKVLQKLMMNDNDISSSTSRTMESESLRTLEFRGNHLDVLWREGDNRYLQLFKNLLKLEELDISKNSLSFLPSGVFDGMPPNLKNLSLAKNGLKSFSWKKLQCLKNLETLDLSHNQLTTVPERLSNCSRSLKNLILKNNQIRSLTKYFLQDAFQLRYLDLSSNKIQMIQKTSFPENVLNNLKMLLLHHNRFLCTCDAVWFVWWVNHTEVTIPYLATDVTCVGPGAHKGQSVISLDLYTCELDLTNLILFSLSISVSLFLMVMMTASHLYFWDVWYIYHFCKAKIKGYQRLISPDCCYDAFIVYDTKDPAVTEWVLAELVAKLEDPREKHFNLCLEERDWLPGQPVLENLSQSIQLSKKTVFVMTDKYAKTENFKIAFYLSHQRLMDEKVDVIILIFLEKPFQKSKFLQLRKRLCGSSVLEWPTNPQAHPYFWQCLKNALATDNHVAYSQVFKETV
procedure_text: HEK293-Blue-hTLR7 cells assay (NF-κB SEAP reporter)
reported_conditions: 20 hrs incubation, agonism
pEC50: −log10 of the molar value.
reported_metric: pEC50

{"molecule": "CCCCc1nc2c(N)nc(C)c(Sc3ccc(CN(C)C)cc3)c2[nH]1 [Example 14]", "numeric_result": 7.82}
{"molecule": "CCOCc1nc2c(N)nc(C)c(Sc3ccc(CN4CCN(C)CC4)c(N)c3)c2[nH]1 [Example 28]", "numeric_result": 8.00}
{"molecule": "CCOCc1nc2c(N)nc(C)c(Sc3c(N)cc(CN4CCN(C)CC4)cc3OC)c2[nH]1 [Example 29]", "numeric_result": 8.22}
{"molecule": "CCOCc1nc2c(N)nc(C)c(Sc3ccc(CN(C)C)c4cc[nH]c34)c2[nH]1 [Example 18]", "numeric_result": 8.05}
